- System: SR leukemia
- experimental protocol: NCI-60 one-dose screen, 48 h (100 = growth as untreated, 0 = no growth, -100 = all killed)
- condition details: 10 µM unless noted
About 83,000 compounds went through this panel and 20% of them were active in at least one assay; those are over-represented in the sample as a whole.
The following compounds are listed with their measured growth values.
Kindly answer with a numeric value in %, unit omitted.

Below: 10 compounds and their reported growth.
compound	target	readout unit	recorded result
CC(=O)O[C@H]1CC[C@]2(C)[C@H]3C(=O)C=C4[C@@H]5C[C@](C)(C(=O)N6CCCNCC6)CC[C@]5(C)CC[C@@]4(C)[C@]3(C)CC[C@H]2C1(C)C	SR leukemia	%	-17.3
COc1ccc(C(=O)/C=C/c2cc(-c3cc(OC)c(OC)c(OC)c3)n[nH]2)cc1OC	SR leukemia	%	-15.6
Cc1c(C)c2c(c(C)c1NC(=O)CCCCCCC(=O)O)CCC(C)(CCCC(C)CCCC(C)CCCC(C)C)O2 (stereo not drawn)	SR leukemia	%	6.23
Cc1ccc(S(=O)(=O)Nc2ccc(-c3cc(-c4cccc(F)c4)c(C#N)c(=O)[nH]3)cc2)cc1	SR leukemia	%	54.9
C=C(C)[C@@H]1CC[C@]2(C)[C@H](CC[C@@H]3[C@H]4[C@H]5OC[C@@]4(CCC5(C)C)CC[C@]32C)[C@@]1(C)CCCN	SR leukemia	%	-0.922
CN1CCN(c2nc(-c3csc(-c4cccs4)n3)cc3ccccc23)CC1	SR leukemia	%	2.45
COc1cc2nc(Cl)nc(Nc3cccc(C(=O)/C=C/c4ccc(Cl)cc4)c3)c2cc1OC	SR leukemia	%	10.4
Cc1csc(-c2ccc3c(c2)COC3(CCCN(C)C)c2ccc(F)cc2)c1 (stereo not drawn)	SR leukemia	%	-3.41
OCCNc1nc(Nc2ccc(Cl)c(Cl)c2)nc2ccccc12	SR leukemia	%	3.46
O=C(/C=C/c1ccc2ccccc2c1)Nc1ncc(Cc2ccccc2)s1	SR leukemia	%	16.9

Find growth (SR leukemia) for the entry Cc1ccc(N(CC(=O)Nc2ccc(S(=O)(=O)NC3CCN(C)CC3)cc2)S(=O)(=O)c2ccc(Cl)cc2)cc1
5.99

Find growth (SR leukemia) for the entry CC(=O)n1c(/C(C#N)=C/c2ccc(N(C)C)cc2)cc2ccccc21
26.8

###

The following compounds are listed with their measured growth values.
- Tested on: NCI/ADR-RES ovarian
- experimental protocol: NCI-60 one-dose screen, 48 h (100 = growth as untreated, 0 = no growth, -100 = all killed)
- condition details: 10 µM unless noted
- Experimental: Growth inhibition of the NCI/ADR-RES human […] tumor cell line is measured as a screen for anti-cancer activity. Cells are grown in 96 well plates and exposed to the test compound for 48 hours. Compounds are tested at a single concentration, which is 10^-5 M for most compounds. The reported endpoint is percent growth (GI% or GIPRCNT), where numbers from 0 - 100% represent growth inhibition, and numbers from -100% - 0 represent cell death. For example, a value of 40 represents 60% growth inhibition. […]
The panel holds about 83,000 compounds, 20% with a hit somewhere; the sample as a whole holds those more often.
Kindly answer with a numeric value in %, unit omitted.

Below: 5 compounds and their reported growth.
compound	growth, %
C[C@H]1[C@@H]2[C@H]3CC[C@@H]4[C@@]5(C)Cc6c([nH]c7ccccc67)C(C)(C)[C@@H]5CC[C@@]4(C)[C@]3(C)CC[C@]23CO[C@]1(C)[C@@H](C(=O)/C=C/c1ccccn1)C3	100
COc1cc(/C=C/c2cc(/C=C/c3ccc(O)c(OC)c3)n(-c3ccc(Cl)cc3)c(=O)n2)ccc1O	96.5
O=C(NC1=CC(=O)c2ccccc2C1=O)c1ccccc1	16.6
CCc1cccc(CC)c1NC(=O)c1sc2nc3c(cc2c1N)CCCC3	45.3
COc1cc2nc(Cl)nc(Nc3cccc(C(=O)/C=C/c4ccc(F)cc4)c3)c2cc1OC	51.6

Would you mind telling me what growth value was observed for COc1cc2c3c(c4c5ccccc5[nH]c4c2c(OC)c1OC)C(=O)N(O)C3=O ?
43.8

Would you mind telling me what growth value was observed for O=[N+]([O-])c1ccc(N/N=C(\C(=N/Nc2ccc([N+](=O)[O-])cc2[N+](=O)[O-])c2ccccc2)c2ccccc2)c([N+](=O)[O-])c1 ?
90.4

###

The following compounds are listed with their measured growth values.
- Test system: SW-620 colon
- experimental protocol: NCI-60 one-dose screen, 48 h (100 = growth as untreated, 0 = no growth, -100 = all killed)
- condition details: 10 µM unless noted
Compounds without any hit were thinned out: in the full panel of roughly 83,000, 20% have a hit.
Kindly answer with a numeric value in %, unit omitted.

Below: 5 compounds and their reported growth.
                              sample_smiles        target  recorded_result
0           Cc1cc(C=O)c(C)c2c1[nH]c1ccccc12  SW-620 colon              101
1            O=C(O)c1cccc2c1-c1ccc(Cl)cc1C2  SW-620 colon              111
2  CN(CSc1ccc(Cl)cc1)c1ccc(CSc2ccc(Cl)cc2)cc1  SW-620 colon             67.5
3                 O=C(CI)Nc1ccc(O)c2ccccc12  SW-620 colon            -68.9
4  c1csc(-c2nc(-c3cc4ccccc4c(N4CCOCC4)n3)cs2)c1  SW-620 colon             97.2

Would you mind telling me what growth value was observed for N=C(N)c1ccc(-c2ccc(-c3cc(F)cc(F)c3)o2)nc1 ?
54.2

###

- System: NCI-H460 lung
- experimental protocol: NCI-60 one-dose screen, 48 h (100 = growth as untreated, 0 = no growth, -100 = all killed)
- condition details: 10 µM unless noted
- Description: Growth inhibition of the NCI-H460 human Non-Small Cell Lung tumor cell line is measured as a screen for anti-cancer activity. Cells are grown in 96 well plates and exposed to the test compound for 48 hours. Compounds are tested at a single concentration, which is 10^-5 M for most compounds. The reported endpoint is percent growth (GI% or GIPRCNT), where numbers from 0 - 100% represent growth inhibition, and numbers from -100% - 0 represent cell death. […]
This is part of a sample that, as a whole, favours compounds with a hit. Of some 83,000 tested, about 20% had one in any assay.
quantity name: growth (%)
Kindly answer with a numeric value in %, unit omitted.

compound	growth, %
CN(C)c1ccc(N)c2ccccc12	52.5
COc1ccc(-n2c(/C=C/c3ccc(O)c(OC)c3)cc(/C=C/c3ccc(O)c(OC)c3)nc2=O)cc1	78
OCC1OC(n2cnc3c(Cl)ncnc32)CC1O (centres undefined)	104
COc1ccccc1CNc1nc(N)nc2[nH]c3ccc(O)cc3c12	18.3
CCOC(=O)c1ccc2c(c1)[n+](=O)c(C(=O)C1CCCS1)c(C(F)(F)F)n2[O-] (centres undefined)	-73.7
COC1=C(Br)C(=O)C(OC)=C(Br)C1=O	106
CC(C)=CCC/C(C)=C/CC/C(C)=C/CC/C(C)=C/CSC[C@H](NC(=O)CCCCCN1CCN(C)CC1)C(=O)NC1CCCCC1	-7.73
CSc1ccc(N(C)c2nc(C)nc3c2CCC3)cc1	6.41
O=C1NC(c2ccc(Cl)c(Cl)c2)=C/C1=C\c1ccccc1	18.6
Cc1cccc(C)c1NC(=O)CSC(=S)N1CCCCC1	106

Find growth (NCI-H460 lung) for the entry O=C(O)/C(=C/c1ccc(O)cc1)c1ccccc1
108

Find growth (NCI-H460 lung) for the entry Cc1csc(Nc2nc(-c3ccc(Cl)cc3)nc(C(Cl)(Cl)Cl)n2)n1
56.6

Find growth (NCI-H460 lung) for the entry c1ccc(CN2C(c3ccccc3)=Nc3ccccc3C2c2c[nH]c3ccccc23)cc1 (centres undefined)
43.4

Find growth (NCI-H460 lung) for the entry O=C1c2cccc3cccc(c23)C(=O)N1CC#Cc1ccc2c3c(cccc13)C(=O)N(CCO)C2=O
95.8

###

- Tested on: HCC-2998 colon
- experimental protocol: NCI-60 one-dose screen, 48 h
- condition details: 10 µM unless noted
This is part of a sample that, as a whole, favours compounds with a hit. Of some 83,000 tested, about 20% had one in any assay. Activity calls are given as the source filed them. The calls were made as follows: active = growth percent below 10; inactive = the rest.
The reply should be one of these categories: active, inactive

sample smiles	target	class label
COc1ccc(-c2cc(/C=C/C(=O)c3ccc(OC)c(OC)c3)[nH]n2)cc1	HCC-2998 colon	inactive

Please state the recorded outcome for this molecule: C=C(C)[C@@H]1CC[C@]2(C(=O)N3CCN(CC)CC3)CC[C@]3(C)[C@H](CC[C@@H]4[C@@](C)(CCC(=O)N5CCN(CC)CC5)[C@H](C(=C)C)CC[C@]43C)[C@@H]12
inactive

###

- Test system: CCRF-CEM leukemia
- experimental protocol: NCI-60 one-dose screen, 48 h
- condition details: 10 µM unless noted
Compounds without any hit were thinned out: in the full panel of roughly 83,000, 20% have a hit. Activity calls are given as the source filed them. How the source made its calls: active means growth percent below 10; inactive means the rest.
The reply should be one of these categories: active, inactive

                                   compound             target  class_label
0  COc1ccc(C2(Cl)c3ccccc3N(c3ccccc3)c3ccccc32)cc1  CCRF-CEM leukemia     inactive

Please state the recorded outcome for this compound: N#Cc1cnc2cc(OC[C@@H](O)CO)c(NC(=O)C3CCCC3)cc2c1Nc1ccc(OCc2cccc(F)c2)c(Cl)c1
active

Please state the recorded outcome for this compound: O=C1c2ccccc2C(=Cc2ccccc2)c2ccccc21
inactive

Please state the recorded outcome for this compound: CC1(C)NCCC[C@]2(C)[C@H]3CC[C@@H]4[C@H]5[C@H](C(=O)/C=C/c6ccccn6)CC[C@]5(CO)CC[C@@]4(C)[C@]3(C)CC[C@@H]12
inactive

Please state the recorded outcome for this compound: Cn1cc(-c2nc(-c3c[nH]c4ncccc34)cs2)c2cc(Cl)ccc21
inactive

Please state the recorded outcome for this compound: COc1ccc(-c2nc(SCC(=O)Nc3ccc(C(C)=O)cc3)[nH]c(=O)c2C#N)cc1
inactive

Please state the recorded outcome for this compound: Cc1ccc(C)c2c1CCC2C(C)C (stereo not drawn)
inactive

Please state the recorded outcome for this compound: C=C(C)[C@@H]1CC[C@]2(/C=N/Nc3ccncc3)CC[C@]3(C)[C@H](CC[C@@H]4[C@@]5(C)CCCNC(C)(C)[C@@H]5CC[C@]43C)[C@@H]12
inactive

Please state the recorded outcome for this compound: Cc1cc(N2CCOCC2)nc(N(CCCNc2ccnc3cc(Cl)ccc23)Cc2ccco2)n1
inactive

Please state the recorded outcome for this compound: CN(C)c1ccc(-c2ccc(-c3ccc(C(=N)N)c(F)c3)s2)cc1
active

Please state the recorded outcome for this compound: COc1ccc(OCC(CO)N2CCN(c3ccccc3)CC2)cc1 (stereo not drawn)
inactive

Please state the recorded outcome for this compound: O=C1CCN2C(=O)Nc3ccccc3C2C1 (stereo not drawn)
inactive

Please state the recorded outcome for this compound: C=C1C(=O)O[C@H]2[C@H]1CC/C(Cn1cc(-c3ccc(F)cc3)nn1)=C\CC[C@@]1(C)O[C@@H]21
active

Please state the recorded outcome for this compound: COc1cccc(-c2nn(-c3ccccc3)cc2-c2ccnc(NCCCO)c2)c1
inactive

Please state the recorded outcome for this compound: Cc1ccc(-c2ccc(/C=C(\C#N)c3nc(-c4ccco4)cs3)o2)cc1
inactive

Please state the recorded outcome for this compound: Cn1cc(-c2csc(-c3cn(CCN)c4ccc(F)cc34)n2)c2cccnc21
inactive

Please state the recorded outcome for this compound: COc1cccc(-c2nn(-c3ccccc3)cc2-c2ccnc(NCCCNS(=O)(=O)c3ccccc3)c2)c1
inactive
